Please go through the items and note down their pIC50.
- Target of assay: human cholecystokinin-2 receptor (CCK-2R) (Homo sapiens, UniProt P32239)
- Construct: host or cells: 1321-N1 cells (plasma membranes prepared by Evotec AG Hamburg)
- Sequence (P32239 whole entry): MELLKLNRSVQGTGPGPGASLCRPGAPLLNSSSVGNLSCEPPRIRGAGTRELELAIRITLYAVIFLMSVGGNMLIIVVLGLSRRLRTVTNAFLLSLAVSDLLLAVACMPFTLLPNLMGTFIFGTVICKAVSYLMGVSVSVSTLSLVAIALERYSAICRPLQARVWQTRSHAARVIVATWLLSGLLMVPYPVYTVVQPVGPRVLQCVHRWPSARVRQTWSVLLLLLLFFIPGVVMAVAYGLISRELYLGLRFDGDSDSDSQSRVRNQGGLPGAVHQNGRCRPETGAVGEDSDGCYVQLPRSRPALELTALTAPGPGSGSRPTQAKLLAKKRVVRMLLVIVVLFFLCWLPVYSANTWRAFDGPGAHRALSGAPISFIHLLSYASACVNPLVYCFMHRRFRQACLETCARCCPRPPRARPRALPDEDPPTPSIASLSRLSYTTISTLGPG
- Run description: In vitro receptor binding to CCK-2R, SPA displacement of [125I]-CCK-8s from plasma membranes
- Experimental parameters: displacement of [125I]-CCK-8s, plasma membranes of 1321-N1 cells expressing CCK-2R; highest dose tested 1×10^7 pM; read-out: IC50 (CCK-2R)
pIC50: −log10 of the molar value. Starred links: 1 amine or outer side, 2 acyl side, 3 side chain; linkers in the order of their positions; H or OH if unused. Non-standard residues stand in square brackets, D forms with d. Residues, ends and D or L forms follow the SMILES beside them. *: point of attachment. Phe(4-CH2SO3H) = N[C@@H](Cc1ccc(CS(=O)(=O)O)cc1)C(=O)O; sY = N[C@@H](Cc1ccc(OS(=O)(=O)O)cc1)C(=O)O; γGlu = O=C(O)[C@H](CCC(=O)[*:2])N[*:1]; 1Nal = N[C@@H](Cc1cccc2ccccc12)C(=O)O; C14 diacid = O=C(O)CCCCCCCCCCCCC(=O)*; NMeF = CN[C@@H](Cc1ccccc1)C(=O)O; dNMeD = CN[C@H](CC(=O)O)C(=O)O; Nle = CCCC[C@H](N)C(=O)O; AEEA = NCCOCCOCC(=O)O

Find the recorded pIC50 belonging to CCCC[C@H](NC(=O)[C@H](Cc1c[nH]c2ccccc12)NC(=O)CNC(=O)[C@H](CC(C)C)NC(=O)[C@H](Cc1ccc(CS(=O)(=O)O)cc1)NC(=O)[C@H](CC(=O)O)NC(=O)COCCOCCNC(=O)COCCOCCNC(=O)CC[C@H](NC(=O)CCCCCCCCCCCCC(=O)O)C(=O)O)C(=O)N(C)[C@H](CC(=O)O)C(=O)N(C)[C@@H](Cc1ccccc1)C(N)=O [Example 34] ({C14 diacid-γGlu-AEEA-AEEA}-D[Phe(4-CH2SO3H)]LGW[Nle][dNMeD][NMeF]-NH2) and report it.
< 5.00

Record: CC(C)C[C@H](NC(=O)[C@H](Cc1ccc(OS(=O)(=O)O)cc1)NC(=O)[C@H](CCC(=O)O)NC(=O)COCCOCCNC(=O)COCCOCCNC(=O)CC[C@H](NC(=O)CCCCCCCCCCCCCCCCC(=O)O)C(=O)O)C(=O)NCC(=O)N[C@@H](Cc1c[nH]c2ccccc12)C(=O)N[C@@H](CCC(N)=O)C(=O)N(C)[C@H](CC(=O)O)C(=O)N(C)[C@@H](Cc1ccccc1)C(N)=O
< 5.00

Record: CCCC[C@H](NC(=O)[C@H](Cc1ccc(OS(=O)(=O)O)cc1)NC(=O)[C@@H](N)CC(=O)O)C(=O)NCC(=O)N[C@@H](Cc1c[nH]c2ccccc12)C(=O)N[C@@H](CCCC)C(=O)N(C)[C@H](CC(=O)O)C(=O)N[C@@H](Cc1cccc2ccccc12)C(N)=O [Example 54] (H-D[sY][Nle]GW[Nle][dNMeD][1Nal]-NH2)
5.64
